- assayed_system: BCL6 (Homo sapiens, UniProt P41182)
- Construct: endogenous in cells; host or cells: T47D breast cancer epithelial cells
- procedure_details: Immunofluorescence protocol for high content imaging of BCL6 (degradation) in T47D cells, 3 days compound treatment
- Assay type: cell-based
- test_conditions: T47D, read-out: Mean Dmax (%)** category
// values below are reported Dmax

- compound: "CNC(=O)COc1cc2cc(Nc3nc(N4CCC(O[C@H]5C[C@H](N6CCN(c7cc(F)c8c(c7F)CN(C7CCC(=O)NC7=O)C8=O)CC6)C5)CC4)ncc3Cl)ccc2n(C(C)C)c1=O (stereo partly shown) [Compound 273]"
  Dmax: "50 to 70%"
- compound: "CNC(=O)COc1cc2cc(Nc3nc(N4CCC(O[C@H]5C[C@H](N6C7CCC6CN(c6ccc8c(c6)C(=O)N(C6CCC(=O)NC6=O)C8=O)C7)C5)CC4)ncc3Cl)ccc2n(C(C)C)c1=O (stereo partly shown) [Compound 372]"
  Dmax: "50 to 70%"
- compound: "CNC(=O)COc1cc2cc(Nc3nc(N4CCC(O[C@H]5C[C@H](N6CCC(O)(c7ccc8c(c7F)CN(C7CCC(=O)NC7=O)C8=O)CC6)C5)CC4)ncc3Cl)ccc2n(C(C)C)c1=O (stereo partly shown) [Compound 277]"
  Dmax: "50 to 70%"
- compound: "CNC(=O)COc1cc2cc(Nc3nc(N4CCC(O[C@H]5C[C@H](N6CCC(c7cc(OC)c8c(c7F)CN([C@H]7CCC(=O)NC7=O)C8=O)CC6)C5)CC4)ncc3Cl)ccc2n(C(C)C)c1=O [Compound 407]"
  Dmax: "≥ 70%"
- compound: "CNC(=O)COc1cc2cc(Nc3nc(N4CCC(O[C@H]5C[C@H](N6CC[C@H](c7ccc8c(c7F)CN(C7CCC(=O)NC7=O)C8=O)C(C)(C)C6)C5)CC4)ncc3Cl)ccc2n(C(C)C)c1=O (stereo partly shown) [Compound 431]"
  Dmax: "≥ 70%"
- compound: "CNC(=O)COc1cc2cc(Nc3nc(N4CCC(C(C)(C)N5CCC6(CC5)CN(c5c(OC)ccc7c5CN(C5CCC(=O)NC5=O)C7=O)C6)CC4)ncc3Cl)ccc2n(C(C)C)c1=O (stereo not shown) [Compound 327]"
  Dmax: "≥ 70%"
- compound: "CNC(=O)COc1cc2c(F)c(Nc3cc(N4CCC(F)(CN5CCC6(CC5)CN(c5ccc7c(c5)CN(C5CCC(=O)NC5=O)C7=O)C6)CC4)ncc3Cl)ccc2n(C(C)C)c1=O (stereo not shown) [Compound 262]"
  Dmax: "50 to 70%"
- compound: "CNC(=O)COc1cc2cc(Nc3cc(N4CCC(O[C@H]5C[C@H](N6CCC(c7ccc8c(c7F)CN(C7CCC(=O)NC7=O)C8=O)CC6)C5)CC4)ncc3Cl)ccc2n(C(C)C)c1=O (stereo partly shown) [Compound 258]"
  Dmax: "50 to 70%"
- compound: "CNC(=O)COc1cc2cc(Nc3nc(N4CCC(O[C@H]5C[C@H](N6CCC7(CCCN(c8ccc9c(c8)CN(C8CCC(=O)NC8=O)C9=O)C7)C6)C5)CC4)ncc3Cl)ccc2n(C(C)C)c1=O (stereo partly shown) [Compound 354]"
  Dmax: "50 to 70%"
- compound: "CNC(=O)COc1cc2cc(Nc3nc(N4CCC(O[C@H]5C[C@H](N6CC7(CCN7c7cccc8c7CN(C7CCC(=O)NC7=O)C8=O)C6)C5)CC4)ncc3Cl)ccc2n(C(C)C)c1=O (stereo partly shown) [Compound 317]"
  Dmax: "50 to 70%"
